Hi there, I'd appreciate the recorded RP-LC retention time for every entry that follows.
assay: gradient 5% acetonitrile 3 min, to 50% in 2 min, to 85% in 15 min, held 3 min, 100 µL/min; conditions: column: Zorbax Extend-C18 2.1 x 50 mm; eluents: water / acetonitrile, 0.1% formic acid
Give just the numeric value; s need not be written.

Prompt: Supply reported RP-LC retention time belonging to this compound: Cc1cccc2nnc(N3CCCC(C(=O)NCCC(C)C)C3)n12 (centres undefined)
Completion: 586

Prompt: Supply reported RP-LC retention time belonging to this compound: CC(NC(=O)C1CCCN(c2ccc(=O)n(-c3cccc(F)c3)n2)C1)c1ccccc1 (centres undefined)
Completion: 868

Prompt: Supply reported RP-LC retention time belonging to this compound: CCCc1ccc(S(=O)(=O)N2CCCC2c2nc(-c3ccc(F)cc3)no2)cc1 (centres undefined)
Completion: 1270

Prompt: Supply reported RP-LC retention time belonging to this compound: CCn1cnc(S(=O)(=O)N2CCCC(C(=O)NCc3ccc(Cl)cc3)C2)c1 (centres undefined)
Completion: 756

Prompt: Supply reported RP-LC retention time belonging to this compound: "O=C(CCSc1ccc(F)cc1)Nc1nc2c(s1)CCC2"
Completion: 878

Prompt: Supply reported RP-LC retention time belonging to this compound: "Cc1cc2c(c(=O)n(-c3ccc(F)cc3)c(=O)n2CC(=O)Nc2ccc(Br)cc2)n1C"
Completion: 932

Prompt: Supply reported RP-LC retention time belonging to this compound: "COC(=O)c1ccc(NC(=O)Cn2c3cc(Cl)ccc3c(=O)n2C(C)(C)C)cc1"
Completion: 1300

Prompt: Supply reported RP-LC retention time belonging to this compound: "Brc1ccc(OCc2nnc3sc(-c4ccccc4)nn23)cc1"
Completion: 1050

Prompt: Supply reported RP-LC retention time belonging to this compound: "Cc1nc(OCC(=O)N2CCc3ccccc32)c2c(-c3ccccc3)noc2n1"
Completion: 1100

Prompt: Supply reported RP-LC retention time belonging to this compound: Cc1nn(Cc2nc(-c3ccc(NC(=O)C4CCCO4)cc3)oc2C)c(C)c1C (centres undefined)
Completion: 793

Prompt: Supply reported RP-LC retention time belonging to this compound: CC(Oc1ccccc1)C(=O)N1CC(c2nc(-c3ccsc3)nn2C)C1 (centres undefined)
Completion: 766

Prompt: Supply reported RP-LC retention time belonging to this compound: "Cc1ccc2nc(-c3c(F)cccc3Cl)c(Nc3ccccc3C)n2c1"
Completion: 777

Prompt: Supply reported RP-LC retention time belonging to this compound: Cc1ccc(CNC(=O)C(C)n2nc(C)c3nn(-c4ccccc4)c(C)c3c2=O)o1 (centres undefined)
Completion: 807

Prompt: Supply reported RP-LC retention time belonging to this compound: "Cc1ccc(-c2nc3ccccn3c2NC(=O)NCc2ccccc2)cc1"
Completion: 657

Prompt: Supply reported RP-LC retention time belonging to this compound: "CCOC(=O)c1ccc(NC(=O)c2sccc2S(=O)(=O)N(C)c2ccc(OCC)cc2)cc1"
Completion: 1230

Prompt: Supply reported RP-LC retention time belonging to this compound: "O=S(=O)(c1cccc(F)c1)N1CC(c2nc(CCOCC3CC3)no2)C1"
Completion: 907

Prompt: Supply reported RP-LC retention time belonging to this compound: COc1ccc2c(c1)C1(CCN(S(=O)(=O)c3ccc(F)cc3F)C1)C(=O)N2C (centres undefined)
Completion: 927

Prompt: Supply reported RP-LC retention time belonging to this compound: CNC(=O)N1CCCN(S(C)(=O)=O)C(c2ccccc2)CC(=O)NCC1 (centres undefined)
Completion: 616

Prompt: Supply reported RP-LC retention time belonging to this compound: "CCN1CCC[C@H]1CNC(=O)c1c(O)c(Cl)cc(Cl)c1OC"
Completion: 777
